Answer each item with its documented ED50.
- studyTarget: Type-1 angiotensin II receptor (Rattus norvegicus)
- experimentSummary: The compound was tested for Angiotensin II (AII) antagonist activity in vivo in an […], normotensive rat model upon intravenous administration
Give bare numbers, in mg/kg.

Worked cases, ED50 given:
>>> testresult("CCCCc1nc2ccccc2n1Cc1ccc(C(=O)O)cc1OC")
16.1
>>> testresult("CCCCc1nc2ccccc2n1Cc1ccc(C(=O)O)c(Br)c1")
5

Count: 3. Required value per item: ED50.
1. CCCCc1nc2cc(F)ccc2n1Cc1ccc(C(=O)O)cc1
2. CCCCc1nc2ccccc2n1Cc1ccc(C(=O)O)cc1
3. CCCCc1nc2ccccc2n1Cc1ccc(C(=O)O)cc1Br

Return:
1: 9.1; 2: 12.6; 3: 11.1
